Protocol text: NCI Yeast Anticancer Drug Screen. Data for the rad50 strain (AID 155);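 further: 0% = growth of vehicle-only cultures of the same strain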
Run parameters: S. cerevisiae rad50 strain growth inhibition; at 1.2 µM; hits give high values
About 79,000 compounds went through this panel and 15% of them were active in at least one assay; those are over-represented in the sample as a whole.
Listing of recorded growth inhibition by entry.
Dear colleague, please return just the value in %, with no unit written.

{"Test smiles": "N#C/C(=C/c1c(Cl)cccc1Cl)C(N)=O", "Display unit": "%", "growth inhibition": -10}
{"Test smiles": "Oc1ccccc1N=Cc1ccc(Cl)cc1", "Display unit": "%", "growth inhibition": 9}
{"Test smiles": "Cc1cc(O)c2c(c1)C(=O)C=C(Br)C2=O", "Display unit": "%", "growth inhibition": 38}
{"Test smiles": "Cc1cc(C(C)(C)CC(C)(C)C)cc(O)c1O", "Display unit": "%", "growth inhibition": -7}
{"Test smiles": "COc1ccc(N=N/C(=N\\NC(=O)c2cc(Br)ccc2O)c2ccc(N(CCC#N)CCC#N)cc2OC)cc1", "Display unit": "%", "growth inhibition": 46}

# context switch: different compound, same growth inhibition
Please look at this compound and report its growth inhibition: `O=Nn1c2ccccc2c2ccccc21` 12

---

Protocol text: NCI Yeast Anticancer Drug Screen. Data for the bub3 strain (AID 167)
Run parameters: S. cerevisiae bub3 mutant strain, at 11.0 µM, hits give high values
Compounds without any hit were thinned out: in the full panel of roughly 79,000, 15% have a hit. Calls of active or inactive are those of the source. No stated cut-off is given here; in the data, active means growth inhibition above about 70%; inactive means the rest.
We begin with a simple list: items and their reported growth inhibition.

Worked cases, growth inhibition given:
{"Molecule": "CCC(=O)Oc1ccc(/C=N/NC(N)=S)nc1", "growth inhibition": "-15% (inactive)"}
{"Molecule": "OC(CN1CCCCC1)c1cc(Cl)c(Cl)c(Cl)c1 (configuration not stated)", "growth inhibition": "25% (inactive)"}
{"Molecule": "O=S(=O)(c1cc(Cl)ccc1O)c1cc(Cl)ccc1O", "growth inhibition": "98% (active)"}
{"Molecule": "Clc1nc(C(Cl)Cl)nc2sc3c(c12)CCCC3", "growth inhibition": "8% (inactive)"}
{"Molecule": "Cn1ncc2cc3c(Nc4ccc(Cl)cc4)cccc3nc21", "growth inhibition": "-7% (inactive)"}
{"Molecule": "O=S1(=O)c2ccccc2N=C(c2ccccc2Cl)CC1c1ccc(F)cc1 (configuration not stated)", "growth inhibition": "-5% (inactive)"}
{"Molecule": "CC(=O)Oc1ccc(C(=O)c2ccccc2)c(O)c1", "growth inhibition": "-58% (inactive)"}
{"Molecule": "CCc1nc(N)nc(N)c1-c1ccc(NCCCCCCN)c([N+](=O)[O-])c1", "growth inhibition": "9% (inactive)"}
{"Molecule": "CC(C)(O)c1ccccc1C(c1ccccc1)c1ccccc1", "growth inhibition": "-4% (inactive)"}
{"Molecule": "O=S(=O)(N/N=C/c1cccc(Cl)c1)c1ccccc1", "growth inhibition": "11% (inactive)"}

Quick one: give measured growth inhibition for `O=Cc1coc2ccccc2c1=O` 8% (inactive)

Dear colleague, please send me the reported growth inhibition for `CCn1ncc(N=O)c1N` when you can. 33% (inactive)

---

Protocol text: NCI Yeast Anticancer Drug Screen. Data for the mlh1 strain (AID 171);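 further: 0% = growth of vehicle-treated control cultures of the same strain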
Run parameters: S. cerevisiae mlh1 strain growth inhibition; at 33.0 µM
The panel holds about 79,000 compounds, 15% with a hit somewhere; the sample as a whole holds those more often. Calls of active or inactive are those of the source. No stated cut-off is given here; in the data, active means growth inhibition above about 70%; inactive means the rest.
Form entry, call: pick from 1 (yes) (active), 0 (no) (inactive)

These recorded examples may help you get a feel for the data.
{"Compound": "S=c1cn[nH]c2ccc(Br)cc12", "Label value": "0 (no)"}
{"Compound": "CCOC(=O)CNC(=O)c1[nH]cnc1/N=N/N(C)C", "Label value": "0 (no)"}
{"Compound": "Nc1cc(F)cc2c1-c1ccc(F)cc1C2", "Label value": "0 (no)"}
{"Compound": "O=C1C=CC(=O)N1c1ccc2c(c1)OCO2", "Label value": "1 (yes)"}
{"Compound": "Cc1cc(O)c2c(c1)C(=O)C=C(Br)C2=O", "Label value": "1 (yes)"}
{"Compound": "CCOc1ccc(C(=O)CCC(=O)O)c(C)c1", "Label value": "0 (no)"}

Outcome logged for CCC(c1ccc(O)cc1)C(CC)c1ccc(OCCN)cc1 (stereo not drawn) in this assay: 0 (no)

What did the test return for `CCc1nc(N)nc(N)c1-c1ccc(NCCCCCCN)c([N+](=O)[O-])c1` ? 0 (no)

---

Protocol text: NCI Yeast Anticancer Drug Screen. Data for the rad50 strain (AID 155);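 further: 0% = growth of vehicle-only cultures of the same strain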
Run parameters: S. cerevisiae rad50 strain growth inhibition; at 1.2 µM; hits give high values
About 79,000 compounds went through this panel and 15% of them were active in at least one assay; those are over-represented in the sample as a whole.
Measured parameter: growth inhibition (%)
Use % as the unit, but write only the number.

Some entries whose results are on file:
{"Molecule": "O=c1ccc(N=Nc2ccccc2)ccc1O", "growth inhibition, %": 18}
{"Molecule": "COc1ccc(N2CN(C)CSC2=S)cc1", "growth inhibition, %": -20}
{"Molecule": "Cc1cccc(/C=N/NC(=S)N(C)CCc2ccccn2)n1", "growth inhibition, %": 91}
{"Molecule": "O=C1NC(c2c(Cl)cccc2Cl)Nc2ccccc21 (centres undefined)", "growth inhibition, %": 12}
{"Molecule": "COc1ccc(SCc2cc(OC)ccc2OC)cc1", "growth inhibition, %": 0}

// Input: `O=[N+]([O-])c1cc(S(=O)(=O)Nc2ccccc2)ccc1Cl` . Output its growth inhibition only. -7

Please indicate growth inhibition recorded for `CN(N=O)C(=O)N[C@@H](C=O)[C@@H](O)[C@H](O)[C@H](O)CO` -1

Output measured growth inhibition for this item: `S=c1nc(Cl)cc2[nH]c(Cl)cn12` 7

Return growth inhibition for the following molecule: `CN(C)c1ccc(/C=C/c2ccnc3ccccc23)cc1N` -5

---

Protocol text: NCI Yeast Anticancer Drug Screen. Data for the mlh1 strain (AID 171);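 further: 0% = growth of vehicle-treated control cultures of the same strain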
Run parameters: S. cerevisiae mlh1 strain growth inhibition; at 100.0 µM; hits give high values
Compounds without any hit were thinned out: in the full panel of roughly 79,000, 15% have a hit.
Measured parameter: growth inhibition (%)
Give the value in % but do not write % after it.

Worked examples, 2 compounds total:
{"Test smiles": "[Pt].c1ccc(P(CCP(c2ccccc2)c2ccccc2)CCP(c2ccccc2)c2ccccc2)cc1", "Display unit": "%", "Meas value": 92}
{"Test smiles": "S=c1nc(Cl)cc2[nH]c(Cl)cn12", "Display unit": "%", "Meas value": 90}

Okay, now this compound:
Name the recorded growth inhibition of the compound listed here: `O=C(O)c1cccc2cccc(-c3c4ccc(=O)cc-4oc4cc(O)ccc34)c12` 91

---

Protocol text: NCI Yeast Anticancer Drug Screen. Data for the mgt1 strain (AID 153)
Run parameters: S. cerevisiae mgt1 mutant growth inhibition; at 3.7 µM
About 79,000 compounds went through this panel and 15% of them were active in at least one assay; those are over-represented in the sample as a whole. Active and inactive are the calls of the source. Cut-off read from the data, not from the text of the source: active = growth inhibition above about 70%; inactive = the rest.
Mark one answer only. Choices: active, inactive

// below: answered compounds
{"Compound": "O=C1C=CC(=O)N1c1ccc(N2C(=O)C=CC2=O)cc1", "Label value": "active"}
{"Compound": "S=C(S)NCC1CCC(CNC(=S)S)CC1 (stereo not given)", "Label value": "inactive"}
{"Compound": "CCC(C)(c1ccc(O)c(C)c1)c1ccc(O)c(C)c1", "Label value": "inactive"}

Recorded test outcome, item `Cn1c2nc3ccccc3c-2nc2ccccc21` inactive

Fill in: this test's call for `NC(N)=N/N=C/c1cc(Cl)cc(Cl)c1O` is ___ inactive

# lookup: test call for `COc1cc2c(cc1C[N+](C)(C)CSc1ccccc1)-c1ccccc1CC2` inactive

Please state the recorded outcome for this compound: `S=C1SCN(CCc2ccccc2)CN1CCc1ccccc1` inactive

Look up the recorded call for `Cc1c(-c2ccccc2)[nH]c2ccccc12` in this test. inactive

---

Protocol text: NCI Yeast Anticancer Drug Screen. Data for the rad50EPP+ strain (AID 151);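 further: 0% = growth of vehicle-treated control cultures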
Run parameters: S. cerevisiae rad50 mutant strain, at 100.0 µM
Compounds without any hit were thinned out: in the full panel of roughly 79,000, 15% have a hit. The source made the active and inactive calls. Rule as the data show it: active = growth inhibition above about 70%; inactive = the rest. Residues, ends and D or L forms follow the SMILES beside them. *: point of attachment. CH2Cl = ClC*
Log the outcome using a class from active, inactive

{"Molecule": "CCN1/C(=C/c2ccc3ccccc3[n+]2CC)C=Cc2ccccc21", "Label value": "active"}
{"Molecule": "CNc1nc(C)nc2c1cnn2-c1ccc([N+](=O)[O-])cc1", "Label value": "inactive"}
{"Molecule": "CC(=O)C1=C(C)O/C(=C/c2cccc(Cl)c2)C1=O", "Label value": "active"}
{"Molecule": "O=S(=O)(c1cc(Cl)ccc1O)c1cc(Cl)ccc1O", "Label value": "inactive"}
{"Molecule": "CC(=O)Oc1ccc(C(=O)c2ccccc2)c(O)c1", "Label value": "active"}

What classification did CC(=O)NC(CC(C)C)C(=O)NC(Cc1ccccc1)C(=O)CCl (stereo not drawn) (Ac-Leu-Phe-CH2Cl; configuration not given here) end up with in this test? inactive

Name the outcome recorded for `COc1ccc2oc(-c3ccc(Cl)cc3)c(N3CCN(C)CC3)c2c1` in the assay. active

Look up the recorded call for CC1=CCCC2C1(C)CCC(C)C2(C)Cc1cc(O)ccc1O (stereo not drawn) in this test. active

# lookup: test call for CC1(C)C(C=O)=CCC1CC(N)=O (stereo not drawn) active

Assay result, entry CC(=O)[C@]1(O)Cc2c(O)c3c(c(O)c2[C@@H](OC2CC(N)C(O)C(C)O2)C1)C(=O)c1c(OCc2ccccc2)cccc1C3=O (stereo partly drawn) — outcome? inactive

Check the results log: what was the call for CC1OC(OC2CCCc3c(O)c4c(c(O)c32)C(=O)c2ccccc2C4=O)CC(N)C1O (stereo not drawn) ? active

Would you mind telling me which call this test gave `O=C1C=CC(=O)N1c1ccc2c(c1)OCO2` ? active

Fill in: this test's call for CCC(c1ccc(O)cc1)C(CC)c1ccc(OCCN)cc1 (stereo not drawn) is ___ inactive

The values you see were collected from PubChem BioAssay (NCI).
